Biological target: Amine oxidase [flavin-containing] A (Homo sapiens)
Sequence (P21397 whole entry): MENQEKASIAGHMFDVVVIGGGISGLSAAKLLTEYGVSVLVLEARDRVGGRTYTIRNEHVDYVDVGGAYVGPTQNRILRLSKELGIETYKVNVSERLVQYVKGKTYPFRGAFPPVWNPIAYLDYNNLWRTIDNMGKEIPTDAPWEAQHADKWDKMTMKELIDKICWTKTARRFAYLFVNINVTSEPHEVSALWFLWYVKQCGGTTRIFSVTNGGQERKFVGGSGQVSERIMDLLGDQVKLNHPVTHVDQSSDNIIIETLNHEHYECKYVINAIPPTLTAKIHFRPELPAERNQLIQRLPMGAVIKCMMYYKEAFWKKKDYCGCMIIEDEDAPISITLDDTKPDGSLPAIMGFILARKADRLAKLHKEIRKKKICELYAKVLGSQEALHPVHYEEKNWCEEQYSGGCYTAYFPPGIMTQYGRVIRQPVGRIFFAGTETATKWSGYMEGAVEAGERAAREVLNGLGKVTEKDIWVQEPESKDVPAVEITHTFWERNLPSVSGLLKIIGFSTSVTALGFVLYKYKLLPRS
pKi: −log10 of the molar value.
measured property: pKi

{"columns": ["record smiles", "pKi"],
 "data": [
  ["Cc1ccc([C@H]2CC(c3cc(Cl)ccc3O)=NN2C(=O)c2ccncc2)cc1", 6.22],
  ["Cc1ccc([C@H]2CC(c3cc(Br)ccc3O)=NN2C(=O)c2ccccc2)cc1", 7.40],
  ["Cc1ccc(/C=C/C(=O)c2cc(Cl)ccc2O)cc1", 6.85],
  ["COc1ccc(C(=O)/C=C/c2ccc(C)cc2)cc1", 6.25],
  ["Cc1ccc([C@H]2CC(c3cc(Br)ccc3O)=NN2C(=O)c2ccncc2)cc1", 6.74]
]}

1. COc1ccc(/C=C/C(=O)c2ccc(Br)cc2)cc1
2. Cc1cccc(/C=C/C(=O)c2ccc(Cl)cc2)c1
3. COc1ccc(/C=C/C(=N/NC(=O)c2snnc2C)c2ccc(Cl)cc2)cc1
4. COc1ccc(/C=C/C(=N\NC(=O)c2ccc(OC)cc2)c2ccc(Cl)cc2)cc1
Please list these in order of increasing pKi. Thank you! Labels, requested order. 2, 1, 4, 3

I. Cc1ccc([C@H]2CC(c3cc(Cl)ccc3O)=NN2C(=O)c2ccco2)cc1
II. Cc1ccc([C@H]2CC(c3cc(Cl)ccc3O)=NN2C(=O)c2snnc2C)cc1
III. Cc1ccc([C@H]2CC(c3cc(Cl)ccc3O)=NN2C(=O)c2ccccc2)cc1
Please list these in order of increasing pKi. Thank you! Labels, requested order. II, I, III

P. COc1ccc(/C=C/C(=O)c2ccc(Cl)cc2)cc1
Q. Cc1ccc(/C=C/C(=N/NC(=O)c2snnc2C)c2ccc(O)cc2)cc1
Kindly identify which of P and Q has the larger recorded pKi value. Respond using the label that marks the chosen record. Q
(Q: 8.00, P: 6.62)

====

Here's a batch of compounds along with measured Ki for Amine oxidase [flavin-containing] B (Homo sapiens, UniProt P27338).
measured property: Ki (µM)

Before answering, review these 6 worked examples.
{"columns": ["record smiles", "endpoint result"],
 "data": [
  ["Cc1ccc([C@H]2CC(c3cc(Br)ccc3O)=NN2C(=O)c2cccs2)cc1", 1640],
  ["Cc1ccc([C@H]2CC(c3cc(Br)ccc3O)=NN2C(=O)c2ccncc2)cc1", 2],
  ["COc1ccc(/C=C/C(=N/NC(=O)c2snnc2C)c2ccc(Cl)cc2)cc1", 1.05],
  ["COc1ccc(/C=C/C(=O)c2ccc(Cl)cc2)cc1", 13.9],
  ["Cc1ccc(/C=C/C(=N/NC(=O)c2snnc2C)c2ccc(Cl)cc2)cc1", 0.76],
  ["Cc1ccc(/C=C/C(=O)c2ccc(Cl)cc2)cc1", 7.7]
]}

1. Cc1cccc(/C=C/C(=O)c2ccc(Cl)cc2)c1
2. Cc1ccc([C@H]2CC(c3cc(Cl)ccc3O)=NN2C(=O)c2ccccc2)cc1
3. Cc1ccc(/C=C/C(=N/NC(=O)c2snnc2C)c2ccc(O)cc2)cc1
4. COc1ccc(C(=O)/C=C/c2ccc(C)cc2)cc1
Please list these in order of increasing Ki. Thank you! Labels, requested order. 2, 3, 1, 4

I. Cc1ccc([C@H]2CC(c3cc(Cl)ccc3O)=NN2C(=O)c2ccncc2)cc1
II. COc1ccc(C(/C=C/c2ccc(C)cc2)=N\NC(=O)c2snnc2C)cc1
Please choose the item with the lower Ki value from this pair: I and II Respond using the label that marks the chosen record. II
(II: 0.9 µM, I: 5.23 µM)

====

Target protein (sequence): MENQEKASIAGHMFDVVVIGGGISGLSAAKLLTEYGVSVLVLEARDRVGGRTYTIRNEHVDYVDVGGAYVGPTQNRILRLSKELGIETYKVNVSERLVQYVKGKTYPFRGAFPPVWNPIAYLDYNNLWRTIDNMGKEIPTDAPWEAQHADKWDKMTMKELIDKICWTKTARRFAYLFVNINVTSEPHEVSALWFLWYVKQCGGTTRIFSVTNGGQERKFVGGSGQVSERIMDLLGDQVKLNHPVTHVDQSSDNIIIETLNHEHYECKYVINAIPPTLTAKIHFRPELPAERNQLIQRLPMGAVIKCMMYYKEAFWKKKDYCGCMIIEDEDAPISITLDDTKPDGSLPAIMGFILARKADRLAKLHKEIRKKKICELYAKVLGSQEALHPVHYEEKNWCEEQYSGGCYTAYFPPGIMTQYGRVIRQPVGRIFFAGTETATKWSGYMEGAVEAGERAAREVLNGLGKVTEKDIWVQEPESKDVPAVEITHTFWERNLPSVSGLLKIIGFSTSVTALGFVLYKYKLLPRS
measured property: Ki (nM)

{"columns": ["record smiles", "units text", "endpoint result"],
 "data": [
  ["Cc1ccc(/C=C/C(=O)c2ccc(O)cc2)cc1", "nM", 600],
  ["Cc1ccc(/C=C/C(=O)c2ccc(Cl)cc2)cc1", "nM", 240]
]}

I. COc1ccc(/C=C/C(=N\NC(=O)c2ccc(OC)cc2)c2ccc(Br)cc2)cc1
II. Cc1ccc([C@H]2CC(c3cc(Br)ccc3O)=NN2C(=O)c2cccs2)cc1
Kindly identify which of I and II has the larger recorded Ki value. Respond using the label that marks the chosen record. II
